Please go through the items and note down their phosphorylation enrichment.
Target: FGFR1 (UniProt P11362)
Sequence (P11362 whole entry, looked up): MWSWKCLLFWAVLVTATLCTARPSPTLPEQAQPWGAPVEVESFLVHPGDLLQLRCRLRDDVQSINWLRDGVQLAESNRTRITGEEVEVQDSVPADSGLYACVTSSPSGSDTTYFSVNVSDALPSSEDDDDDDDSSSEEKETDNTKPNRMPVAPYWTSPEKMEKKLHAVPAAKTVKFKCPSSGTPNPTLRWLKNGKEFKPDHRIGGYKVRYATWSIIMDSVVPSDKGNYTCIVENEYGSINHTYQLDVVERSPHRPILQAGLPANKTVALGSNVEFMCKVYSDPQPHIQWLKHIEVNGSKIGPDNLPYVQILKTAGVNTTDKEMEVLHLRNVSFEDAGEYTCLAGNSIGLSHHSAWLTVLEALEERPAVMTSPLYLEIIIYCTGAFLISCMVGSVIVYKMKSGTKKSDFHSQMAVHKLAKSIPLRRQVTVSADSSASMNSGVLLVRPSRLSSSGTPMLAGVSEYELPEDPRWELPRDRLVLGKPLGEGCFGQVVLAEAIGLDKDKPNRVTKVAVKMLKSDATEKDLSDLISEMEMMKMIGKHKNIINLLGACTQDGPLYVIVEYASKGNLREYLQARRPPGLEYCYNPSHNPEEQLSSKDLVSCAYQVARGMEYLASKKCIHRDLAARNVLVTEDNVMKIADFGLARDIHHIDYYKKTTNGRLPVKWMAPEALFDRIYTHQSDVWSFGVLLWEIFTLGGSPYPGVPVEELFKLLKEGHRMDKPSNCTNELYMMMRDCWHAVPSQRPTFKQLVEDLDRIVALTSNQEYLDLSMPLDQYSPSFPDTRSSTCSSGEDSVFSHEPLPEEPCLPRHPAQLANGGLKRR
Experiment: phosphorylation enrichment, bacterial display (enrichment ratio); higher = better substrate or ligand; peptides without Tyr show the background;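 note: 11-residue human phosphosite peptides and single-mutation variants displayed on the E. coli surface, counted by deep sequencing, each peptide's frequency after selection divided by its frequency in the unselected input library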;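 note: frequency after pTyr selection over input frequency; kinase dosed for 20-30% of maximal phosphorylation in three min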
Numbers only.

Worked cases, phosphorylation enrichment given:
{"query.sequence": "RWGQKYMTAVV [CYBA_Y72]", "endpoint.result": 0.654}
{"query.sequence": "SRVTQYERNFE [SNX1_Y463_D466N]", "endpoint.result": 0.453}
{"query.sequence": "QFFQGYFNNNF [ZNF236_Y644_S643G]", "endpoint.result": 0.643}
{"query.sequence": "FKEDPYLVVNP [MCM6_Y810_E806K_YF]", "endpoint.result": 1.02}
{"query.sequence": "GTATAYLCGVK [ALPL_Y117]", "endpoint.result": 0.485}

Give phosphorylation enrichment for all sequences that follow.
1. ALETLYKKAVK [CC2D2A_Y381_E376A]
2. KQRKEYMHRWQ [IQGAP2_Y710_R714W]
3. FVPSNYVAEDR [FRK_Y104_I100V_YF]
4. SWSTSYSGYRC [NKAPL_Y91_Y96C]
5. SVVVCYEPPEV [TP53_Y220_P219C]

1. 0.405
2. 0.577
3. 0.447
4. 0.585
5. 0.509

Give phosphorylation enrichment for all sequences that follow.
1. TDTQLYGRFGS [ITGA2B_Y384_G380D]
2. HFPFQYHRQLF [F12_Y53_YF]
3. QAEEWYFGKMG [YES1_Y159]

1. 0.487
2. 0.555
3. 1.17

Give phosphorylation enrichment for all sequences that follow.
1. NHQFDYTFHWT [CSNK1A1_Y294_D297H_YF]
2. KATKGYLDDPT [G6PD_Y322_E317K]
3. EWLRGYLENGK [HLA-C_Y195_R194G]
4. LLINKYGLSAH [SCP2_Y151]
5. LTVVIYVLIGR [EPHA3_Y561]
6. HITQVYGFFDE [PPP2CA_Y127_Q122H_YF]
7. SHEELYKWFTS [DYNC1H1_Y3051]

[3.83, 0.529, 0.481, 0.488, 0.691, 1.32, 5.57]

Give phosphorylation enrichment for all sequences that follow.
1. ARSHIYTFASC [MEFV_Y741]
2. VIKDKYPKAHY [APTX_Y209_R213H]
3. CTTIFYNFMCN [TP53_Y234_H233Y_YF]
4. EEEYEYMNRRR [ERBB3_Y1199_D1194E]
5. LIDSSYLTPTA [GREB1L_Y1063_R1066P]
6. YIILIYAMKKK [SLCO1B1_Y645]
7. IGRWVYPLTPE [EIF2B5_Y319_R315G]

1. 0.491
2. 0.34
3. 1.05
4. 0.429
5. 0.596
6. 0.331
7. 0.564
